# TARGET ENTITY: Virion infectivity factor (Human immunodeficiency virus type 1 group M subtype B (isolate BH10)) + Virion infectivity factor (Human immunodeficiency virus type 1 group M subtype B (isolate BRU/LAI)) + Virion infectivity factor (Human immunodeficiency virus type 1 group M subtype B (isolate PCV12)) + Virion infectivity factor (Human immunodeficiency virus type 1 group M subtype B (isolate HXB2)) + DNA dC->dU-editing enzyme APOBEC-3G (Homo sapiens) (UniProt P69720+P69721+P69722+P69723+Q9HC16)
# PROCEDURE DETAILS: inhibitors of Vif binding to APOBEC3G peptide, primary screen, biochemical, TR-FRET, GST-Vif 1-94, biotin-A3G peptide, dose response retest (AID 1117319);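 note: Vif residues 1-94 fused to GST binding biotinylated APOBEC3G peptide 110-148; 0% = full assay without inhibitor and 100% = GST in place of GST-Vif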
# EXPERIMENTAL SETUP: active compounds read high
Hit rate of the full screen: of about 260,000 compounds, about 1,500 (0.58%) were called active. Inconclusive results (about 5%) are left out. Only a sample is shown. Potency and affinity values are given separately.
I'd be grateful if you could share measured inhibition for these entries.
Supply the numeric figure in %, leaving out any unit text.

Query: Give me measured inhibition, please, for this molecule: CC(CCc1ccccc1)NC(=O)C1CCN(S(=O)(=O)N2CCOCC2)CC1 (stereo unspecified)
Result: -3.69

Query: Dear colleague, please send me the reported inhibition for `COc1cccc(-c2nnc3sc(-c4ccccn4)nn23)c1` when you can.
Result: -11.4

Query: Return inhibition (reported value) for this molecule: COc1cc(Cl)c(C)cc1NC(=O)CN1C(=O)C2CCCCC2C1=O (stereo unspecified)
Result: -15.8

Query: Complete the entry with inhibition for `Cc1cc2nc(C)n(CCCNC(=O)Nc3ccc(C#N)cc3)c2cc1C`
Result: -0.77

Query: Answer with the recorded inhibition for the molecule listed here: `Cc1cc(C(=O)CN2CCCC2)c(C)n1-c1ccc(Cl)cc1`
Result: 1.44

Query: Give me measured inhibition, please, for this molecule: `CCOC(=O)c1cnc(-n2nc(C)cc2C)[nH]c1=O`
Result: -8.45

Query: Fill in reported inhibition for this entry: `CC1(C)CC(NC(=O)C(c2ccccc2)c2ccccc2)CC(C)(C)N1`
Result: -4.99

Query: Please look at this molecule and report its inhibition: O=C1OC(Cc2ccccc2)(c2ccccc2)c2ccccc21 (stereo unspecified)
Result: 3.92

Query: Give me measured inhibition, please, for this molecule: `CCOc1ccc(NC(=O)NCCCn2c(C)nc3cc(C)c(C)cc32)cc1`
Result: 3.24

Query: Return value of inhibition for input `OCCNC(=S)Nc1ccc(Cl)c(Cl)c1` , no commentary.
Result: 1.22

Query: Specify reported inhibition for the molecule shown: `CCOC(=O)c1c(NC(=O)Cc2cccs2)sc2c1CCCC2`
Result: -5.96
